Experiment: RGS4 potentiators or activators, primary screen, cell-based, HEK293 M3R inducible RGS4, calcium flux (AID 463111)
Conditions: HEK293 M3R/inducible RGS4, carbachol calcium flux Fluo4, at 10 µM
The campaign covered roughly 310,000 compounds. About 2,800 (0.9%) were called active.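 Rule for the calls: active = B-score of the integrated calcium signal more than 4 SD below the library mean, with starting fluorescence not abnormally high; inactive = the rest.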 For the sample, actives were picked, then their nearest neighbours and some compounds at random.
Could you please pick one outcome from this set? Y (active), N (inactive)

Prompt line: Called result for CCCCCn1c(=O)c(C(=O)NCc2ccccc2)c(O)c2ccccc21
Response line: N

Prompt line: Called result for O=C1CC(=O)N(Cc2ccccc2)C(=O)N1CCCCCCN1C(=O)CC(=O)N(Cc2ccccc2)C1=O
Response line: N

Prompt line: Called result for CC(C)Oc1cccc(C(=O)C2CCCN(C3CCOCC3)C2)c1 (stereo not given)
Response line: Y

Prompt line: Called result for Cc1cccc(OP(=O)(Oc2cccc(C)c2)OC(c2ccccc2)C(F)(F)F)c1 (stereo not given)
Response line: Y

Prompt line: Called result for COc1ccc(-c2nn(CCC#N)cc2C(=O)O)cc1
Response line: N

Prompt line: Called result for O=C(O)CCn1cc(C=C2C(=O)NC(=S)NC2=O)c(-c2cccc(Br)c2)n1
Response line: N

Prompt line: Called result for CCCCCn1c(=O)c(C(=O)Nc2c(C)n(C)n(-c3ccccc3)c2=O)c(O)c2ccccc21
Response line: Y

Prompt line: Called result for CCOc1ccc(C2SCC(=O)Nc3c2c(C)nn3C2CCOC(C)(C)C2)cc1 (stereo not given)
Response line: N

Prompt line: Called result for C=CC12CN(C)[C@@H]3C4CO[C@H](C[C@H]41)[C@]1(C(=O)Nc4ccccc41)[C@@H]32 (stereo not given in full)
Response line: Y

Prompt line: Called result for CC(c1ccccc1)(c1ccccc1)c1ccncc1
Response line: N
